Where these numbers come from: paper PMC9727339

test system: skin melanoma A375.s2 cell line; assay: Antiproliferation, sulforhodamine B colorimetric bioassay, A375.s2; format: cell-based; details: read-out: Cytotoxicity (as of %Control) IC50, A375.s2; 72 h incubations, SRB; mean ± SD, n = 3-4
Readout Name: IC50 (nM)
Answers are plain numbers, in nM.

Ask | So what does the record say about IC50 for N.N.[Cl][Pt][Cl] [Cisplatin, cisplatin] ?
Reply | 700

###

system: breast carcinoma T47D cell line; test: Antiproliferation, sulforhodamine B colorimetric bioassay, T47D; type: cell-based; conditions: read-out: Cytotoxicity (as of %Control) IC50, T47D; 72 h incubations, SRB; mean ± SD, n = 3-4
Readout Name: IC50 (µM)
One number for each entry, in µM.

Ask | So what does the record say about IC50 for N.N.[Cl][Pt][Cl] [Cisplatin, cisplatin] ?
Reply | 45.1

###

tested on: breast carcinoma MCF7 cell line; experiment: Antiproliferation, sulforhodamine B colorimetric bioassay, MCF7; type: cell-based; settings: read-out: Cytotoxicity (as of %Control) IC50, MCF7; 72 h incubations, SRB; mean ± SD, n = 3-4; listed as cisplatin
Readout Name: IC50 (µM)
Numbers only, in µM.

Ask | Give breast carcinoma MCF7 cell line IC50 for N.N.[Cl][Pt][Cl] [Cisplatin, cisplatin]
Reply | 92.6

###

tested on: breast carcinoma MCF7 cell line; test: Antiproliferation, sulforhodamine B colorimetric bioassay, MCF7; assay type: cell-based; settings: read-out: Cytotoxicity (as of %Control) IC50, MCF7; 72 h incubations, SRB; mean ± SD, n = 3-4
Readout Name: pIC50
One number for each entry, as −log10 of the molar value.

Ask | So what does the record say about pIC50 for N.N.[Cl][Pt][Cl] [Cisplatin, cisplatin] ?
Reply | 4.03
